Items are presented alongside their recorded cytotoxicity at 70.5 h.
- assay summary: Human HepG2 cell viability assay in 384 well format
- Assay type: toxicity, cell-based
- Design: dose 125 nL, time 70.5 hour; concentration not given beside the values
- measurement conditions: HepG2 cells, read-out: Inhibition
The reply should be a number in %, with the unit left off.

As a guide, the following entries are already answered.
> print(dat)
                                   compound  readout.units  result
1  Cc1cc(C[C@@H]2CCC[C@H]2NCc2ccc(C(F)(F)F)cc2)on1              %      -2
2  CN(C(=O)NCc1ccncc1)C1CCN(c2ccccc2)C1=O (stereo unspecified)              %    11.5
3                CSCCCN(CCN1CCOCC1)Cc1ccco1              %   -9.79
4  c1cnc(N2CCC3(CCN(CC4CCOC4)CC3)CC2)nc1 (stereo unspecified)              %    1.98
5  c1ccc(Oc2ccc(OC34CCCN(CC3)C4)cc2)cc1 (stereo unspecified)              %   -9.13
6  Cc1ccc2cc(C(=O)N3CCCCC3c3nc[nH]n3)ccc2n1 (stereo unspecified)              %    11.1

// query Supply measured cytotoxicity at 70.5 h of COc1c(C2CCCN2C(=O)c2ccc3[nH]cnc3c2)c(C)nn1C (stereo unspecified) in your reply.
// result -0.572

// query Hello, please tell me recorded cytotoxicity at 70.5 h for this one: COCC(C)N(Cc1ccccc1OC)C(=O)c1cc(C)[nH]c(=O)c1 (stereo unspecified)
// result -5.15

// query Answer with reported cytotoxicity at 70.5 h of Cc1cccc(CN2CCC3(CC2)CN(c2cccnc2)C(=O)CO3)n1
// result -4.77

// query Give the reported cytotoxicity at 70.5 h for this compound. CN(CCc1cccs1)C(=O)Nc1cnn(CC2CCCO2)c1 (stereo unspecified)
// result -16

// query For N#Cc1cccc(OCCN2CCCC(c3noc(C4CC4)n3)C2)c1 (stereo unspecified) , write its cytotoxicity at 70.5 h.
// result -5.39

----------
- assay summary: Human HepG2 cell viability assay in 384 well format
- Format: toxicity, cell-based
- Set-up: dose 125 nL, time 70.5 hour; concentration not given beside the values
- measurement conditions: HepG2 cells, read-out: Inhibition
Each record here notes measured cytotoxicity at 70.5 h.
Quick note: number first, unit second.

> print(dat)
                                   compound  result
1  COc1ccc(-c2noc(-c3ccc(N4CCC[C@H]4CO)nc3)n2)cc1   10.2%

// query Fill in reported cytotoxicity at 70.5 h for this entry: CC(=O)Oc1ccnc(C(F)(F)F)c1C(C)=O
// result -3.5%

// query Given Cc1nc(C2CCCN2CC(=O)N(Cc2ccsc2)C2CC2)no1 (stereo unspecified) , respond with its cytotoxicity at 70.5 h.
// result -5.17%

// query Specify measured cytotoxicity at 70.5 h for Cn1ccnc1CN1CCCC(CCCc2ccccn2)(C(N)=O)C1 (stereo unspecified) .
// result -4.1%

// query Give reported cytotoxicity at 70.5 h value for O=C(C1CCSCC1)N1CC[C@H]2OCC[C@@]2(COCC2CC2)C1
// result -6.06%

// query Supply reported cytotoxicity at 70.5 h belonging to this compound: NC(=O)c1cccc(CN2CCOC(Cn3cccn3)C2)c1 (stereo unspecified)
// result 8.52%

// query Please report the measured cytotoxicity at 70.5 h for OCc1csc(N2C[C@@H](CN3CCCCCC3)[C@@H](CO)C2)n1
// result -7.86%

// query Fill in reported cytotoxicity at 70.5 h for this entry: CNc1nc2c(s1)C(c1ccccc1F)CC(=O)N2 (stereo unspecified)
// result 9.16%

// query Recall and state the measured cytotoxicity at 70.5 h for Cn1cc(C(=O)NCc2ccc(N3CCNC(=O)C3)c(F)c2)cn1 .
// result -4.04%

// query For Cc1nc(C2CCCN(C(=O)c3cc(Cl)c[nH]3)C2)no1 (stereo unspecified) , write its cytotoxicity at 70.5 h.
// result -15.5%

// query # return recorded cytotoxicity at 70.5 h for input Cn1cc(NC(=O)CCCc2cccs2)c(=O)n(C)c1=O
// result 5.9%

----------
We begin with a simple list: items and their reported cytotoxicity at 70.5 h.
- assay summary: Human HepG2 cell viability assay in 384 well format
- Type: toxicity, cell-based
- Set-up: dose 125 nL, time 70.5 hour; concentration not given beside the values
- measurement conditions: HepG2 cells, read-out: Inhibition
Answer in %, number only, no unit symbol.

> print(dat)
                                   molecule             result.type  readout.units  result
1  c1[nH]c(CC2CCCC2)nc1CN1CCCC2(CCOC2)C1 (stereo not drawn)  cytotoxicity at 70.5 h              %   -8.93
2  CCSCC(C)NCc1nn(C)c2ccc(C)cc12 (stereo not drawn)  cytotoxicity at 70.5 h              %   -5.67
3  CC(Cn1cccn1)NC(=O)Nc1ccc(N2CCCCC2)nc1 (stereo not drawn)  cytotoxicity at 70.5 h              %   -7.26
4     CS(=O)(=O)N1CCc2ccc(=O)n(CC3CC3)c2CC1  cytotoxicity at 70.5 h              %   -7.85
5  O=C(NCC1CC1)[C@H]1C[C@@H]2CN(C(=O)NCc3ccccc3)C[C@H]1O2  cytotoxicity at 70.5 h              %    11.4
6  Cc1nc2c(c(NC3CCN(Cc4ccccc4)CC3)n1)CCNCC2  cytotoxicity at 70.5 h              %   0.337
7  O=C(CCn1cc(Cl)cn1)N1CCN(CC2CC2)[C@@H]2CS(=O)(=O)C[C@@H]21  cytotoxicity at 70.5 h              %   -10.2
8   Cn1ccnc1CN1CCCN(C(=O)CC(C2CC2)C2CC2)CC1  cytotoxicity at 70.5 h              %   0.914

// query Indicate the recorded cytotoxicity at 70.5 h value for this molecule: COCc1nc(C(=O)N2CCCC2c2c(C)nn(C)c2C)cs1 (stereo not drawn)
// result -6.67

// query Could you please provide reported cytotoxicity at 70.5 h for Cn1ncc2c(=O)[nH]c(CN3CCCC3c3cccs3)nc21 (stereo not drawn) ? Thanks!
// result -10.3

// query Output measured cytotoxicity at 70.5 h for this item: CCOc1cc(CN(C)CC(=O)O)ccc1OC(F)F
// result 6.63

// query Give cytotoxicity at 70.5 h for the following molecule: CCc1ncc(C(=O)N2CCC(O)(CN3CCOCC3)C(C)(C)C2)cn1 (stereo not drawn)
// result -0.715

// query Give a short answer stating reported cytotoxicity at 70.5 h for CO[C@H]1CN(C)S(=O)(=O)[C@@]12CCN(Cc1ccccc1)C2 .
// result -3.43

// query Give the value of cytotoxicity at 70.5 h reported for the following: CCC(CNC(=O)OC)(OC)c1ccccc1 (stereo not drawn)
// result -0.855

// query Let me know recorded cytotoxicity at 70.5 h for CN(Cc1cccs1)C(=O)CN1C(=O)c2cc(Cl)c(Cl)cc2C1=O , thanks.
// result -13.1

// query Give the reported value of cytotoxicity at 70.5 h for this record: CC(C)CNC(=O)NC(=O)C(C)Nc1cccc(CN2CCOC2=O)c1 (stereo not drawn)
// result -10.8

// query Give the measured cytotoxicity at 70.5 h for NCC1CCCCN1C(=O)Cc1cccc(Cl)c1 (stereo not drawn)
// result -6.28

// query Quickly give me recorded cytotoxicity at 70.5 h for CCc1nc(C2CCCN2C(=O)c2cnc3n[nH]c(C)c3c2)no1 (stereo not drawn)
// result -12.5

----------
Reported cytotoxicity at 70.5 h by item:
- assay summary: Human HepG2 cell viability assay in 384 well format
- Format: toxicity, cell-based
- Set-up: dose 125 nL, time 70.5 hour; concentration not given beside the values
- measurement conditions: HepG2 cells, read-out: Inhibition
Give the number; % is assumed, so skip it.

Examples with answers:
> print(dat)
                                   molecule  result
1  COc1nc2c(cc1C(=O)N(C)Cc1[nH]nc3c1CCC3)CCC2    27.9
2  Cc1nc(C)n(CC2CN(Cc3ccncc3)Cc3nccn3C2)n1 (stereo unspecified)   -4.22
3  CC(Cn1cccn1)NC(=O)CCC(=O)c1cccs1 (stereo unspecified)   -11.2
4  CCN1CCCC1CNC(=O)Cc1c(C)n[nH]c1-c1ccc(OC)cc1 (stereo unspecified)    24.8
5  Cn1cccc1C(=O)N1CCC2(CC1)c1nc[nH]c1CCN2S(C)(=O)=O    -3.6
6  CCc1ccc(O)c(C(=O)N2CCN(CC(=O)N(C)C)CC2)c1   -1.61
7  O=C(C1CC1)N1CC[C@@H]2[C@H](CC1)N(Cc1cccnc1)CCS2(=O)=O   -2.85
8   O=C(N1CCOCC1)N1CCN(c2ccc(Cl)nn2)C(=O)C1   -6.24

// query Supply cytotoxicity at 70.5 h value. Item: CC(C)N(CCNC(=O)c1[nH]nc2ccc(I)cc12)C(C)C
// result -1.97

// query Find the measured cytotoxicity at 70.5 h of COc1ccc(C(C(=O)O)N2CCC(O)(c3cccnc3)CC2)cc1F (stereo unspecified) and report it.
// result 6.42

// query Tell us which cytotoxicity at 70.5 h value is on record for CSCC[C@@H](CO)NC(=O)c1sc(-c2ccc(Cl)cc2)nc1C
// result -11.9

Values from ChEMBL document CHEMBL3507680
